- assay-info: Acute toxicity on rats and selectivity index
- measurement-context: rat, in vivo, po; rats; p.o.; read-out: approximate LD50 toxicity
reported-metric: LD50

CC1(C)[C@H](C(=O)O[C@H](C#N)c2cccc(Oc3ccccc3)c2)[C@@H]1C=C(Cl)Cl (relative stereo) [Ia]; ~50 mg/kg

Now look at this entry.
For CC1(C)[C@H](C=C(Cl)Cl)[C@H]1C(=O)O[C@H](C#N)c1cccc(Oc2ccccc2)c1 (relative stereo) [Ib] the compound record lists LD50 as ~5000 mg/kg

----------
The reader will find reported % of insects showing toxic symptoms values listed item by item below.
- System: T. confusum
- assay-info: Activity as function of time, toxic symptoms (Table 16)
- Format: in vivo, flour beetle (T. confusum), imagos
- measurement-context: 180 minutes; 0.33 mg/disc
Write the value in % as a bare number.

CC1(C)C(C=C(Cl)Cl)C1C(=O)OC(C#N)c1cccc(Oc2ccccc2)c1 (stereo not drawn); 100
CC1(C)[C@H](C(=O)O[C@H](C#N)c2cccc(Oc3ccccc3)c2)[C@@H]1C=C(Cl)Cl [If]; 61

For "CC1(C)[C@@H](C=C(Cl)Cl)[C@@H]1C(=O)O[C@@H](C#N)c1cccc(Oc2ccccc2)c1" the molecule record lists % of insects showing toxic symptoms as 0
